tgt: C-X-C chemokine receptor type 3 (Homo sapiens)
Sequence (whole entry): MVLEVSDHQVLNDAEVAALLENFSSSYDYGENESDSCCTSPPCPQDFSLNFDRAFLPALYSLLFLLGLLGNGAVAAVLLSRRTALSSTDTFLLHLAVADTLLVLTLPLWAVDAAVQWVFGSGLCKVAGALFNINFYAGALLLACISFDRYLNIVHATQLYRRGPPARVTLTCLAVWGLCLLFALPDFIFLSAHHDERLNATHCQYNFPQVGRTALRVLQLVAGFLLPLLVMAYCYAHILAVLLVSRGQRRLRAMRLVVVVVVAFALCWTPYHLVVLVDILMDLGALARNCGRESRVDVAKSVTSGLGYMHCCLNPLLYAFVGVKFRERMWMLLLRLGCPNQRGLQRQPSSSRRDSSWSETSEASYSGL
assayRemarks: Positive allosteric modulation of ProLink1-tagged wild type CXCR3 (unknown origin) expressed in HEK293T cells assessed as beta-arrestin-2 recruitment incubated for 4 hrs by chemiluminescence-based microplate reader method relative to CXCL11
Type: cell-based
conditionNotes: HEK-293T
Activity calls are given as the source filed them. The rule behind the calls is not given here.
observationType: Efficacy

Some solved cases for reference:
- structureString: "N[C@@H](CCCCNC(=O)[C@@H]1Cc2ccccc2CN1C(=O)CCCC(=O)c1ccccc1)C(=O)NCC(c1ccccc1)c1ccccc1"
  assayValue: "20%"
- structureString: "CC(=O)CCC(=O)N1Cc2ccccc2C[C@H]1C(=O)NCCCC[C@H](NC(=O)OC(C)(C)C)C(=O)NCC(c1ccccc1)c1ccccc1"
  assayValue: "34%"
- structureString: "CC(C)(C)OC(=O)N[C@@H](CCCCNC(=O)[C@@H]1Cc2ccccc2CN1C(=O)CCC(=O)c1cccs1)C(=O)NCC(c1ccccc1)c1ccccc1"
  assayValue: "inactive"
- structureString: "CC(C)(C)OC(=O)N[C@@H](CCCCNC(=O)[C@@H]1Cc2ccccc2CN1C(=O)CCC(=O)c1ccccc1)C(=O)NCC(c1ccccc1)c1ccccc1"
  assayValue: "30%"
- structureString: "NCCCC[C@H](NC(=O)[C@@H]1Cc2ccccc2CN1C(=O)CCC(=O)c1ccccc1)C(=O)NCC(c1ccccc1)c1ccccc1.O=C(O)C(F)(F)F"
  assayValue: "139%"
- structureString: "COc1ccc(C(=O)CCC(=O)N2Cc3ccccc3C[C@H]2C(=O)NCCCC[C@H](NC(=O)OC(C)(C)C)C(=O)NCC(c2ccccc2)c2ccccc2)cc1"
  assayValue: "inactive"
- structureString: "NCCCC[C@@H](NC(=O)[C@@H]1Cc2ccccc2CN1C(=O)CCC(=O)c1ccccc1)C(=O)NCC(c1ccccc1)c1ccccc1"
  assayValue: "108%"
- structureString: "CC(C)(C)OC(=O)NCCCC[C@@H](NC(=O)[C@@H]1Cc2ccccc2CN1C(=O)CCC(=O)c1ccccc1)C(=O)NCC(c1ccccc1)c1ccccc1"
  assayValue: "36%"

Exam item: # get_value(readout='Efficacy', item= CC(C)(C)OC(=O)N[C@@H](CCCCNC(=O)[C@@H]1Cc2ccccc2CN1C(=O)CCC(=O)N1CCCCC1)C(=O)NCC(c1ccccc1)c1ccccc1 )
Marked response: inactive

Exam item: Need Efficacy, item CC(C)(C)OC(=O)N[C@@H](CCCCNC(=O)[C@@H]1Cc2ccccc2CN1C(=O)CCC(=O)c1ccco1)C(=O)NCC(c1ccccc1)c1ccccc1
Marked response: inactive

Exam item: Item CC(C)(C)OC(=O)N[C@@H](CCCCNC(=O)[C@@H]1Cc2ccccc2CN1C(=O)CCCc1ccccc1)C(=O)NCC(c1ccccc1)c1ccccc1 has what recorded Efficacy?
Marked response: inactive

Exam item: What value of measured Efficacy is listed for N[C@H](CCCCNC(=O)[C@@H]1Cc2ccccc2CN1C(=O)CCC(=O)c1ccccc1)C(=O)NCC(c1ccccc1)c1ccccc1 ?
Marked response: 28%

Exam item: Sample COc1ccc(C(=O)CCC(=O)N2Cc3ccccc3C[C@H]2C(=O)NCCCC[C@H](NC(=O)OC(C)(C)C)C(=O)NCC(c2ccccc2)c2ccccc2)cc1OC — what was its Efficacy?
Marked response: inactive

Exam item: What Efficacy value was documented for this compound, N[C@@H](CCCCNC(=O)[C@@H]1Cc2ccccc2CN1C(=O)CCC(=O)c1ccccc1)C(=O)NCC(c1ccccc1)c1ccccc1 ?
Marked response: 17%

Data origin: ChEMBL document CHEMBL3784986
